// data source = ChEMBL document CHEMBL4354878

Each entry below carries its reported solubility.
- assay.info: Solubility of the compound in pH 7.4 buffer by HPLC analysis

Cc1cc(C#N)cc(C)c1Oc1nc(Nc2ccc(C#N)cc2)nc(N)c1Br	< 1 µg/mL

Now let's try a different one.
For this molecule ( Cc1cc(/C=C/C#N)cc(C)c1Nc1ccnc(Nc2ccc(C#N)cc2)n1 ), measured solubility is < 1 µg/mL

###

Each entry below carries its reported EC50.
- System: Human immunodeficiency virus 1
- assay.info: Antiviral activity against HIV1 expressing RT K103N mutant infected in human MT4 cells assessed as protection against virus-induced cytopathic effect incubated for 5 days by MTT assay
- Type: functional, organism-based
- condition: Human immunodeficiency virus 1, MT4, 120 h
Numbers only; they are read as nM.

Use these answered entries as a reference point.
CCOC(=O)c1ccc(CN2CCC(Nc3nc(Oc4c(C)cc(/C=C/C#N)cc4C)c4ccsc4n3)CC2)cc1	12
Cc1cc(/C=C/C#N)cc(C)c1Oc1nc(NC2CCN(Cc3cccc(C(N)=O)c3)CC2)nc2sccc12	5.45
Cc1cc(C#N)cc(C)c1Oc1nc(Nc2ccc(C#N)cc2)nc(N)c1Br [ETRAVIRINE]	2.35
Cc1cc(/C=C/C#N)cc(C)c1Oc1nc(NC2CCN(Cc3ccc(F)cc3)CC2)nc2sccc12	22.6
Cc1cc(/C=C/C#N)cc(C)c1Oc1nc(NC2CCN(Cc3ccc(S(N)(=O)=O)cc3)CC2)nc2sccc12	2.34
Cc1cc(/C=C/C#N)cc(C)c1Oc1nc(NC2CCN(Cc3ccc(C(N)=O)cc3)CC2)nc2sccc12	4.99

For this compound ( Cc1cc(/C=C/C#N)cc(C)c1Oc1nc(NC2CCN(Cc3ccc(C#N)cc3)CC2)nc2sccc12 ), measured EC50 is 17.3
